Target: T1, KDpeptide2
T1 construct: Synthetic peptide (Anaspec) coated on ELISA plates at 800 ng per well
T1 peptide: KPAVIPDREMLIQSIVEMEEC
Test: ELISA on coated synthetic peptides, direct comparison
MEASURED_METRIC: binding result

| BINDER | RECORDED_RESULT |
| --- | --- |
| KD7-1B5 (antibody, V domains shown) VH: VQLVESGGGVVQPGRSLRLSCEASGFTFRSRAMHWVRQAPGKGLGWVAVIWYDGSNKYYADSVKGRFTISRDNSRNTLYLQMNSLRAEDTAVYYCARDLGSGFSLDYWGQGTLVTVS VL: QSVLTQPPSVSAAPGQKVTISCSGSSSNIGNNYVSWYQQLPGTAPKLLIYDNNKRPSGIPDRFSGSKSGTSATLGITGLQTGDEADYYCGTWDSSLSAEVFGGGTKLTVLG | binds |
| KD10-1G3 (antibody, V domains shown) VH: EVQLVESGGGLVQPGGSLKLSCAASGFSFSGAAMHWVRQSSGRGLEWLGRIRSKTNDYATAYAESLHGRFTISRDDAKNTAYLQMNRLKSEDTAIYYCTTVLSKGDHAVWLGPWGPGTLVTV VL: QPVLTQPPSSSASPGESARLTCTLPSDISVAASDIYWYQQKAGSPPNFLLYDPSDSHKGQDSGVPSRFSGSRDGSANSGFLLISGVQSEDEADYYCMVWPPNTVGVVFGGGTTLTV | binds |
